# Subject of test: Recombinant human integrin α8β1 (Homo sapiens (Human), UniProt P05556+P53708)
# Sequence (P53708 39-1012): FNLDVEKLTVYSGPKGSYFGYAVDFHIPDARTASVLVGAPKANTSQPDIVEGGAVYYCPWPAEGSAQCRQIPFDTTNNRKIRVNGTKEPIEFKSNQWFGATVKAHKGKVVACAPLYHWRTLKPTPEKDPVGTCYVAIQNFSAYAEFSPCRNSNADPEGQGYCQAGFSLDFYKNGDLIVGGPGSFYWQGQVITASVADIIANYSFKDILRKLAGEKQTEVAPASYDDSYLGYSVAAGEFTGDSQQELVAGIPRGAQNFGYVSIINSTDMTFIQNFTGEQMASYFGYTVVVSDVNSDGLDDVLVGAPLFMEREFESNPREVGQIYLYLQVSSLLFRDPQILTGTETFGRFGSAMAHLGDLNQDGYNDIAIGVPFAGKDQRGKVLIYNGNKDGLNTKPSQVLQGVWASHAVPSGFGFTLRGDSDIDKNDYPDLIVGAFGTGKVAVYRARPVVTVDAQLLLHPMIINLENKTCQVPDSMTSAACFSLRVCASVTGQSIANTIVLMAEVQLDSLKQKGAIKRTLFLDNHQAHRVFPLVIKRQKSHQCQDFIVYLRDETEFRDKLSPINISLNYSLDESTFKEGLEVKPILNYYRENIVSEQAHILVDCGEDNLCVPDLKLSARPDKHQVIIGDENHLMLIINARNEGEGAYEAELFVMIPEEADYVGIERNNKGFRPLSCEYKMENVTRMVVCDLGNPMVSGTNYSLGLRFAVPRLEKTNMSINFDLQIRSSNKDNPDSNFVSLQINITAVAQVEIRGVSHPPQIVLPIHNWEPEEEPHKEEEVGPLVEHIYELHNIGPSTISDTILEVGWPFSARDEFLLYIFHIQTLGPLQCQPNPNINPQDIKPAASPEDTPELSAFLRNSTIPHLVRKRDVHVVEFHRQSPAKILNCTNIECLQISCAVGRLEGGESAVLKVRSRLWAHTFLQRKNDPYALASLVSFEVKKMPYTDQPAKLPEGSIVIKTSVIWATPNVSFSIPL
# Sequence (P05556 21-728): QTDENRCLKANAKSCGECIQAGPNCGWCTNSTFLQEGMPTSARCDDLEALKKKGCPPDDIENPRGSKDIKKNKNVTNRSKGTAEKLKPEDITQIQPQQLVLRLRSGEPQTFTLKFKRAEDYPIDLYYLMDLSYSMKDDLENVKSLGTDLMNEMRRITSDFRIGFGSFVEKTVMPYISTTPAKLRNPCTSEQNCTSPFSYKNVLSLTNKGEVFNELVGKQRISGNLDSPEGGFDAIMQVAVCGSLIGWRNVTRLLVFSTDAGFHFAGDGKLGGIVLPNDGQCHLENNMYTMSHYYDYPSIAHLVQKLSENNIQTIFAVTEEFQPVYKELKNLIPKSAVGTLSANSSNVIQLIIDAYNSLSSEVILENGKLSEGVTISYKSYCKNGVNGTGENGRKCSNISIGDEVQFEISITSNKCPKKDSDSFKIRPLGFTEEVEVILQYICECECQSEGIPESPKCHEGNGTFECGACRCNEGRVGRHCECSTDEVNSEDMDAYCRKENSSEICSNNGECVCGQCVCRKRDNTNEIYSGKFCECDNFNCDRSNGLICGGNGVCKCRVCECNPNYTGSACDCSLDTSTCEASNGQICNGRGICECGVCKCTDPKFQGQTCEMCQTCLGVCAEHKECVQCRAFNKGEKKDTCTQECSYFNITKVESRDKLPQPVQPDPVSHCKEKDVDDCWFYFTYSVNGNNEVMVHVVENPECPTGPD
# Procedure details: Solid Phase Receptor Assay (SPRA) for α8β1 function
# Condition context: mouse nephronectin-coated plate
Answer each item with its documented IC50.
Record the value in nM, omitting the unit from your answer.

Hello, I am looking for reported IC50 with Recombinant human integrin α8β1 (Homo sapiens (Human), UniProt P05556+P53708) for Cc1cc(Cl)cc([C@@H](CC(=O)O)NC(=O)CNC(=O)c2cccc(NC3=NCCN3)c2)c1O [Example C11, reference compound] . Could you help?
17

Same again, this time with O=C(O)C[C@H](NC(=O)CNC(=O)c1cc(O)cc(NC2=NCC(O)CN2)c1)c1cc(Br)cc(C(F)F)c1 (stereo partly shown) [Example 4]
0.6

Same again, this time with Cc1cc(Cl)cc([C@@H](CC(=O)O)NC(=O)CNC(=O)c2cc(O)cc(NC3=NCC(O)CN3)c2)c1O (stereo partly shown) [Example C10, reference compound]
10

Same again, this time with O=C(O)C[C@H](NC(=O)CNC(=O)c1cc(O)cc(NC2=NCC(O)CN2)c1)c1cc(Cl)cc(C(F)(F)F)c1 (stereo partly shown) [Example 5]
0.9

Same again, this time with O=C(O)C[C@H](NC(=O)CNC(=O)c1cc(O)cc(NC2=NCC(O)CN2)c1)c1cc(Br)cc(C(F)(F)F)c1 (stereo partly shown) [Example 2]
1.5

Same again, this time with Cc1cc(Cl)cc([C@H](CC(=O)O)NC(=O)CNC(=O)c2cc(O)cc(NC3=NCC(O)CN3)c2)c1 (stereo partly shown) [Example 12]
0.8

Same again, this time with O=C(O)C[C@H](NC(=O)CNC(=O)c1cncc(NC2=NCC(O)CN2)c1)c1cc(Cl)cc(C(F)(F)F)c1 (stereo partly shown) [Example 7]
0.6

Same again, this time with Cc1cc(C)cc(C(CC(=O)O)NC(=O)CNC(=O)c2cccc(NC(=N)N)c2)c1 (stereo not shown) [Example C4, reference compound]
63

Same again, this time with O=C(O)C[C@H](NC(=O)CNC(=O)c1cc(O)cc(NC2=NCC(O)CN2)c1)c1cc(Cl)cc(Br)c1O (stereo partly shown) [Example C1, reference compound]
8

Same again, this time with O=C(O)C[C@H](NC(=O)CNC(=O)c1cc(O)cc(NC2=NCC(O)CN2)c1)c1cc(Br)cc(OC(F)(F)F)c1 (stereo partly shown) [Example 17]
0.7

Same again, this time with O=C(O)C[C@H](NC(=O)CNC(=O)c1cc(O)cc(NC2=NCC(O)CN2)c1)c1cc(Cl)cc(Cl)c1 (stereo partly shown) [Example 15]
1.2

Same again, this time with O=C(O)CC(NC(=O)CNC(=O)c1cc(O)cc(NC2=NCC(O)CN2)c1)c1cc(Br)cc(Br)c1O (stereo not shown) [Example C7, reference compound]
26

Same again, this time with O=C(O)C[C@H](NC(=O)CNC(=O)c1cc(O)cc(NC2=NCC(O)CN2)c1)c1cc(C(F)(F)F)cc(C(F)(F)F)c1 (stereo partly shown) [Example 10]
1.1
